# Measurement Target: Proteasome Macropain subunit MB1 (Homo sapiens, UniProt P28074)
# Sequence (P28074 whole entry): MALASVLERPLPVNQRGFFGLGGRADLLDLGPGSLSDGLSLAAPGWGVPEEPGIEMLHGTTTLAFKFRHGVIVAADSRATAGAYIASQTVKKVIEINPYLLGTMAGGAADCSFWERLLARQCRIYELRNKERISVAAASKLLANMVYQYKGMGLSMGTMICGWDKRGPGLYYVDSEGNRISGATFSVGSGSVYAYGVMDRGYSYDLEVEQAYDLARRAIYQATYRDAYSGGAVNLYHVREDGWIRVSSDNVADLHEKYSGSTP
# Test Summary: Negative allosteric modulation of SDS-activated human erythrocytes 20S proteasome chymotrypsin like activity using Suc-LLVY-AMC as substrate measured every 2 mins up to 60 mins by fluorescence assay
# Run Parameters: read-out: IC50
Residues, ends and D or L forms follow the SMILES beside them.
# IC50 per entry

Molecule	IC50 (µM)
CC(C)C[C@H](NC(=O)[C@H](Cc1ccc(O)cc1)NC(=O)[C@@H]1CCCN1C(=O)[C@@H]1CCCN1C(=O)[C@H](CCCNC(=N)N)NC(=O)[C@@H]1CCCN1C(=O)[C@H](CCCNC(=N)N)NC(=O)[C@H](CCCNC(=N)N)NC(=O)[C@@H](N)CCCNC(=N)N)C(=O)N1CCC[C@H]1C(=O)N[C@@H](CCCNC(=N)N)C(=O)N[C@@H](Cc1c[nH]c2ccccc12)C(=O)NCC(=O)O (H-RRRPRPPYLPRWG-OH)	0.05
CC(C)C[C@H](NC(=O)[C@H](Cc1ccc(O)cc1)NC(=O)[C@H](CCCNC(=N)N)NC(=O)[C@H](CCCNC(=N)N)NC(=O)[C@@H](N)CCCNC(=N)N)C(=O)N1CCC[C@H]1C(=O)N[C@@H](CCCNC(=N)N)C(=O)N[C@@H](Cc1c[nH]c2ccccc12)C(=O)NCC(N)=O (H-RRRYLPRWG-NH2)	0.082
CC(C)C[C@H](NC(=O)[C@H](Cc1ccc(O)cc1)NC(=O)[C@@H]1CCCN1C(=O)[C@@H]1CCCN1C(=O)[C@H](CCCNC(=N)N)NC(=O)[C@@H]1CCCN1C(=O)[C@H](CCCNC(=N)N)NC(=O)[C@H](CCCNC(=N)N)NC(=O)[C@@H](N)CCCNC(=N)N)C(=O)N1CCC[C@H]1C(=O)N[C@@H](CCCNC(=N)N)C(=O)N[C@@H](Cc1c[nH]c2ccccc12)C(=O)NCC(N)=O (H-RRRPRPPYLPRWG-NH2)	0.113
CC(C)C[C@H](NC(=O)[C@H](Cc1ccc(O)cc1)NC(=O)[C@H](CCCNC(=N)N)NC(=O)[C@H](CCCNC(=N)N)NC(=O)[C@@H](N)CCCNC(=N)N)C(=O)N1CCC[C@H]1C(=O)N[C@@H](CCCNC(=N)N)C(=O)N[C@@H](Cc1c[nH]c2ccccc12)C(=O)NCC(=O)O (H-RRRYLPRWG-OH)	0.111
CC(C)C[C@H](NC(=O)[C@H](Cc1ccc(O)cc1)NC(=O)[C@@H]1CCCN1C(=O)[C@@H]1CCCN1C(=O)[C@H](CCCNC(=N)N)NC(=O)[C@@H]1CCCN1C(=O)[C@H](CCCNC(=N)N)NC(=O)[C@H](CCCNC(=N)N)NC(=O)[C@@H](N)CCCNC(=N)N)C(=O)N1CCC[C@H]1C(=O)N[C@@H](CCCNC(=N)N)C(=O)N[C@@H](Cc1ccccc1)C(=O)NCC(=O)O (H-RRRPRPPYLPRFG-OH)	0.099
